Cited source: ChEMBL document CHEMBL5390248

The reader will find IC50 measurements below, all made with Serine/threonine-protein kinase PAK 4 (Homo sapiens, UniProt O96013).
Sequence (O96013 whole entry): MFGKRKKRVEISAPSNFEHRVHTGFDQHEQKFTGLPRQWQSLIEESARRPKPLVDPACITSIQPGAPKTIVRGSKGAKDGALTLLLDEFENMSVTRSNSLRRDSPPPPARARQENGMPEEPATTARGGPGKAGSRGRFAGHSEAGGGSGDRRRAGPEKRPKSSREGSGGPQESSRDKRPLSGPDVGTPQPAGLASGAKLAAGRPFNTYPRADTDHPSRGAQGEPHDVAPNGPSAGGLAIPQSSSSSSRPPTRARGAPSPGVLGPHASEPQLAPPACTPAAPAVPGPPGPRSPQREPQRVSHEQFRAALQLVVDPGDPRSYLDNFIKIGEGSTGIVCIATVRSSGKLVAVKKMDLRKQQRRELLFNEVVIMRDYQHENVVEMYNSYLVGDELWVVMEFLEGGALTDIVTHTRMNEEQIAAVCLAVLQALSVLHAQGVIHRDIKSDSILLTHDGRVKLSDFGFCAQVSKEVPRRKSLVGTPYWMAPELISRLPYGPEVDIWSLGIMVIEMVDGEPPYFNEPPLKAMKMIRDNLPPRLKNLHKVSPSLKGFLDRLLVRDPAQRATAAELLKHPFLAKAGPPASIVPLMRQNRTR
measured parameter: IC50 (nM)

N[C@H](CNC(=O)c1nc(Nc2n[nH]c3ccccc23)c2cc(Cl)ccc2n1)Cc1ccccc1 :: 9

A = CC(C)[C@@H](N)CNC(=O)c1nc(Nc2n[nH]c3ccccc23)c2cc(Cl)ccc2n1
B = N[C@H](CNC(=O)c1nc(Nc2n[nH]c3ccccc23)c2cc(Cl)ccc2n1)c1ccccc1
C = CC(C)[C@H](N)CNC(=O)c1nc(Nc2n[nH]c3ccccc23)c2cc(Cl)ccc2n1
Task: Put the entries in order of IC50, starting with the largest number. Please respond by ranking the labels in the order requested.
Output: B, C, A
